Listed below: acute toxicity (lethal dose) values for each entry.
- Test system: dd-strain male mice
- Assay type: in vivo
- condition-info: p.o., mouse, 72 hours

Here is how some compounds turned out for acute toxicity (lethal dose).
C=CCn1c(=O)c2ccccc2n(-c2cccc([N+](=O)[O-])c2)c1=O | 2000 mg/kg
O=c1c2ccccc2n(-c2cccc([N+](=O)[O-])c2)c(=S)n1CC(F)(F)F | > 2000 mg/kg
O=c1c2ccccc2n(-c2cccc([N+](=O)[O-])c2)c(=O)n1CCO | 2000 mg/kg
O=c1c2ccccc2n(-c2cccc(C(F)(F)F)c2)c(=O)n1CCO [R1=drawing 18, R2=CH2 CH2 OH, reference compound] | 970 mg/kg

-- ask Name the recorded acute toxicity (lethal dose) for `CCOCCn1c(=O)c2ccccc2n(-c2cccc([N+](=O)[O-])c2)c1=O` .
-- reply > 2000 mg/kg

-- ask Name the recorded acute toxicity (lethal dose) for `Cn1c(=O)c2ccccc2n(-c2cccc([N+](=O)[O-])c2)c1=O` .
-- reply > 2000 mg/kg

-- ask Name the recorded acute toxicity (lethal dose) for `CC(C)n1c(=O)c2ccccc2n(-c2cccc([N+](=O)[O-])c2)c1=O` .
-- reply > 2000 mg/kg

-- ask Name the recorded acute toxicity (lethal dose) for `O=c1c2ccccc2n(-c2cccc([N+](=O)[O-])c2)c(=O)n1CCOCCO` .
-- reply 2000 mg/kg

-- ask Name the recorded acute toxicity (lethal dose) for `C#CCn1c(=O)c2ccccc2n(-c2cccc([N+](=O)[O-])c2)c1=O` .
-- reply > 2000 mg/kg

-- ask Name the recorded acute toxicity (lethal dose) for CCn1c(=O)c2ccccc2n(-c2cccc(C(F)(F)F)c2)c1=O [R1=drawing 18, R2=C2 H5, reference compound] .
-- reply > 4000 mg/kg

-- ask Name the recorded acute toxicity (lethal dose) for `CCCn1c(=O)c2ccccc2n(-c2cccc([N+](=O)[O-])c2)c1=O` .
-- reply > 2000 mg/kg

-- ask Name the recorded acute toxicity (lethal dose) for `CC(=O)OCCn1c(=O)c2ccccc2n(-c2cccc([N+](=O)[O-])c2)c1=O` .
-- reply 2000 mg/kg

-- ask Name the recorded acute toxicity (lethal dose) for `CCn1c(=O)c2ccccc2n(-c2cccc([N+](=O)[O-])c2)c1=O` .
-- reply > 2000 mg/kg

-- ask Name the recorded acute toxicity (lethal dose) for `O=c1c2ccccc2n(-c2cccc([N+](=O)[O-])c2)c(=O)n1CCF` .
-- reply > 2000 mg/kg

-- ask Name the recorded acute toxicity (lethal dose) for `O=c1c2ccccc2n(-c2cccc([N+](=O)[O-])c2)c(=O)n1CC(F)(F)F` .
-- reply > 2000 mg/kg

-- ask Name the recorded acute toxicity (lethal dose) for `O=c1c2ccccc2n(-c2cccc([N+](=O)[O-])c2)c(=O)n1CCCl` .
-- reply > 2000 mg/kg

Origin of the recorded values: patent US4016166A
